pKd values for the binders below.
Molecular target: T1, mouse Pih1 PIH domain 1-200 (His-mPih1 1-200) (mouse, UniProt Q9CQJ2 1-200)
T1 construct: Pih1 (Pih1D1), mouse, residues 1-200; SeMet protein was used for the crystal structure 4CKT; The ITC methods say only 'Pih1' / 'mPIH domain'; also called mPIH domain; Pih1D1
T1 sequence (Q9CQJ2 1-200): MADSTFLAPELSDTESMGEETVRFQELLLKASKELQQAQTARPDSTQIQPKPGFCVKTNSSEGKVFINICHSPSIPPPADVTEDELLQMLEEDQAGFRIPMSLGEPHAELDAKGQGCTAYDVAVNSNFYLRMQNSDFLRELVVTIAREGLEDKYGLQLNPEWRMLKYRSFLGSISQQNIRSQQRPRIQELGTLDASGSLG
Experiment: ITC; peptides at 350 μM injected into 30 μM Pih1 (mPIH domain) at 30°C; 20 mM Tris pH 7.5, 5 mM NaCl
Conditions: both partners purified
Square brackets hold non-standard residues; d marks the D form. Ends that are not written are not given here. pT = C[C@@H](OP(=O)(O)O)[C@H](N)C(=O)O; pS = N[C@@H](COP(=O)(O)O)C(=O)O
Give only the number. pKd is defined as minus log10 of concentration in molar units.

binder	pKd
QGSDSELD[pT]DDEF (also called phosphothreonine Tel2 peptide) [Tel2 peptide with pSer492 replaced by phosphothreonine]	4.34

IN: # input binder: MAND[pS]DDSI (Mre11, phosphorylation site 554-MANDpSDDSIS-563 found among sites in human proteins) [Mre11 phosphopeptide MANDpSDDSI] ; wanted: its pKd
OUT: 5.19
